test.name: Water solubility (20° C.)
Type: physicochemical
measured.parameter: solubility

Need solubility of `CN(C)C1CCCCC1` , thanks.
~480 mM
